test_summary: Pharmacokinetics of Compound II given orally and intravenously to cancer patients (plasma, LC/MS/MS)
Type: in vivo, human
condition_notes: human, plasma, 30 mg/m2; 30 mg/m^2, IV, patients N=4, median
metric_name: Tmax (min)

{"columns": ["molecule", "readout_number"],
 "data": [
  ["C/C(=C\\c1csc(C)n1)C1C[C@@H]2O[C@]2(C)CCC[C@H](C)[C@H](O)[C@@H](C)C(=O)C(C)(C)[C@@H](O)CC(=O)N1 (relative stereo)", 30]
]}

---

test_summary: Pharmacokinetics of Compound II given orally and intravenously to cancer patients (plasma, LC/MS/MS)
Assay type: in vivo, human
condition_notes: human, plasma; 25 mg/m^2, oral solution vs IV, patients N=11, mean; read-out: % F (absolute bioavailability)
metric_name: bioavailability (%)

{"columns": ["molecule", "readout_number"],
 "data": [
  ["C/C(=C\\c1csc(C)n1)C1C[C@@H]2O[C@]2(C)CCC[C@H](C)[C@H](O)[C@@H](C)C(=O)C(C)(C)[C@@H](O)CC(=O)N1 (relative stereo) [Compound II]", 55.6]
]}
